The measured values listed here are drawn from patent US8202879B2.

Subject of test: EGFR (Homo sapiens)
Construct: purchased Carna Biosciences, Inc; host or cells: insect cell expression system
Sequence (P00533 25-1210): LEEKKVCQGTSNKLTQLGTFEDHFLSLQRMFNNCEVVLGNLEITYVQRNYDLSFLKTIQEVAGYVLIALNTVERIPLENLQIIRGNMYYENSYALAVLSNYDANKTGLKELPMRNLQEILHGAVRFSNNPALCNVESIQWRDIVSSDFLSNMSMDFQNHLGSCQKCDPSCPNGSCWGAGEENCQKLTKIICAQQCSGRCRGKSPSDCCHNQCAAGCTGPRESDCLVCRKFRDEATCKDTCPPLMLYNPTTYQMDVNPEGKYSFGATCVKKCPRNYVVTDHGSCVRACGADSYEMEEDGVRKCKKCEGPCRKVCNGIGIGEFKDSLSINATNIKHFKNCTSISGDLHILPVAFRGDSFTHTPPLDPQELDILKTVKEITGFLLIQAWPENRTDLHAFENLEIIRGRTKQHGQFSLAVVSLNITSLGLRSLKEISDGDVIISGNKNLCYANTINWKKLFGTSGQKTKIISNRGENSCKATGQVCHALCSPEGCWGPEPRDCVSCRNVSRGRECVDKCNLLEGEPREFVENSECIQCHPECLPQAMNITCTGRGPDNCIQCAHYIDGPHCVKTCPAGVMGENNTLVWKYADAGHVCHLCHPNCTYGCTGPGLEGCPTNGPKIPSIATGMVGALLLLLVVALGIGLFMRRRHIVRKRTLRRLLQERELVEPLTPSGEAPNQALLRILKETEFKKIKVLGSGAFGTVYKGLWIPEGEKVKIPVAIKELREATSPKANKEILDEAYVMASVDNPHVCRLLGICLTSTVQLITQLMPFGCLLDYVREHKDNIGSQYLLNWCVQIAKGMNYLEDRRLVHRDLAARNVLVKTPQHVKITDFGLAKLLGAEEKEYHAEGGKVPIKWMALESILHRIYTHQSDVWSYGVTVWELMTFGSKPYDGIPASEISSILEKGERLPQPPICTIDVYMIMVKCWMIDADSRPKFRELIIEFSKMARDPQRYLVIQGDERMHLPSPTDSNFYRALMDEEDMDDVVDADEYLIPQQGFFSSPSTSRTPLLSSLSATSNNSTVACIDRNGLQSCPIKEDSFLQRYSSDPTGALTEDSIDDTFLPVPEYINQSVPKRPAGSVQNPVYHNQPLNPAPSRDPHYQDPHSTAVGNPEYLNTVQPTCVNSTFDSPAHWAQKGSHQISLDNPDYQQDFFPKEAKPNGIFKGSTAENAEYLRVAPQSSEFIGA
Procedure summary: Enzyme inhibitory activity on EGFR (time resolution fluorescence, biotinylated poly-Glu-Tyr substrate)
Assay type: biochemical
Condition set: enzyme reaction at room temperature for 60 minutes
Quantity measured: IC50 (nM)
Give bare numbers, in nM.

Solved entries:
CC#C/C(=N\OCCNC[C@@H](C)CO)c1ccc2ncnc(Nc3ccc(OCc4ccccn4)c(Cl)c3)c2c1 [VIII-139]
5
CC#C/C(=N\OCCNC)c1ccc2ncnc(Nc3ccc(Sc4ccccc4)cc3)c2c1 [VIII-213]
18
CC#C/C(=N\OCC1COCCN1)c1ccc2ncnc(Nc3ccc(Oc4ccc(C)nc4)c(C)c3)c2c1 (centres unmarked) [VIII-218]
76
CC#C/C(=N\OCCN(C)CCOC)c1ccc2ncnc(Nc3ccc(OCc4ccccn4)c(Cl)c3)c2c1 [VIII-146]
12
CC#C/C(=N\OCCNC)c1ccc2ncnc(Nc3ccc(S(=O)(=O)c4ccccc4)cc3)c2c1 [VIII-214]
4.5
CC#C/C(=N\OCC(N)=O)c1ccc2ncnc(Nc3ccc(OCc4cccc(F)c4)c(Cl)c3)c2c1 [VIII-223]
253
CC#C/C(=N\OCCNC[C@H]1CCCO1)c1ccc2ncnc(Nc3ccc4c(cnn4Cc4cccc(F)c4)c3)c2c1 [VIII-188]
20

Okay, now this molecule:
Quick one: IC50 of CC#CC(=NOCC1CN(C)CCN1C)c1ccc2ncnc(Nc3ccc(OCc4ccccn4)c(Cl)c3)c2c1 (centres unmarked) [VIII-172] ?
14

====

Subject of test: HER2 (Homo sapiens)
Construct: purchased Carna Biosciences, Inc; host or cells: insect cell expression system
Procedure summary: Enzyme inhibitory activity on HER2 (time resolution fluorescence, biotinylated poly-Glu-Tyr substrate)
Type: biochemical
Condition set: HER2 purified from insect cell expression system; ATP solution 290 μM; room temperature, 60 minutes
Task for the reader: assign each of the following molecules its reported IC50.
Numbers only, in nM.

CC#C/C(=N\OC[C@@H](COC)NC)c1ccc2ncnc(Nc3ccc(OCc4cccc(F)c4)c(Cl)c3)c2c1 [VIII-56]
13.8
CC#C/C(=N\OC[C@@H]1C[C@@H](NC(C)=O)CN1)c1ccc2ncnc(Nc3ccc(OCc4cccc(F)c4)c(Cl)c3)c2c1 [VIII-84]
47
CC#C/C(=N\OCCN1C[C@@H](C)O[C@@H](C)C1)c1ccc2ncnc(Nc3ccc(OCc4cccc(F)c4)c(Cl)c3)c2c1 [VIII-93]
321
Fc1cccc(COc2ccc(Nc3ncnc4ccc(/C=N/OCCN5CCOCC5)cc34)cc2Cl)c1 [Compound V-7]
76
CC#C/C(=N\OC[C@@H]1CCCN1CC(=O)O)c1ccc2ncnc(Nc3ccc(OCc4cccc(F)c4)c(Cl)c3)c2c1 [VIII-89]
24

# per-item lookup of IC50; items listed below
1. CC#C/C(=N\OCCNCCNS(C)(=O)=O)c1ccc2ncnc(Nc3ccc(OCc4cccc(F)c4)c(Cl)c3)c2c1 [VIII-51]
2. CC#C/C(=N\OCCN1CCC(N)CC1)c1ccc2ncnc(Nc3ccc(OCc4cccc(F)c4)c(Cl)c3)c2c1 [VIII-98]
3. CC/C(=N\OCCN1CCOCC1)c1ccc2ncnc(Nc3ccc(OCc4cccc(F)c4)c(Cl)c3)c2c1 [VIII-7]

64
21
348

# per-item lookup of IC50; items listed below
1. CC#C/C(=N\OC[C@@H](N)CO)c1ccc2ncnc(Nc3ccc(OCc4cccc(F)c4)c(Cl)c3)c2c1 [VIII-41]
2. CC#C/C(=N\OCCN1CCC(NC(C)=O)CC1)c1ccc2ncnc(Nc3ccc(OCc4cccc(F)c4)c(Cl)c3)c2c1 [VIII-99]
3. CC#CC(=NOCC(C)N)c1ccc2ncnc(Nc3ccc(OCc4cccc(F)c4)c(Cl)c3)c2c1 (stereo not shown) [VIII-40]
4. CC#C/C(=N\OCCN1CCC(NS(C)(=O)=O)CC1)c1ccc2ncnc(Nc3ccc(OCc4cccc(F)c4)c(Cl)c3)c2c1 [VIII-100]
5. CC#CC(=NOCCN1CCC(NC(C)=O)C1)c1ccc2ncnc(Nc3ccc(OCc4cccc(F)c4)c(Cl)c3)c2c1 (stereo not shown) [VIII-70]

1. 15
2. 84
3. 19.2
4. 203
5. 31

====

Test system: BT-474
Procedure summary: In vitro cell proliferation inhibition, WST assay
Format: cell-based, human
Condition set: Homo sapiens, BT-474, 72 h, BT-474 cells, cultured for 3 days, read-out: BT-474 (nM) proliferation inhibitory activity (IC50 value)
Quantity measured: IC50 (nM)
Give bare numbers, in nM.

Solved entries:
CC#C/C(=N\OCCNCCCN1CCCC1=O)c1ccc2ncnc(Nc3ccc(OCc4cccc(F)c4)c(Cl)c3)c2c1 [VIII-50]
27
CC#C/C(=N\OC[C@@H]1CNC[C@H](C)O1)c1ccc2ncnc(Nc3ccc(OCc4cccc(F)c4)c(Cl)c3)c2c1 [VIII-109]
40
CC#C/C(=N\OCCNC)c1ccc2ncnc(Nc3ccc(Sc4ccccc4)cc3)c2c1 [VIII-213]
33
CC#C/C(=N\OCCN1CC[C@@H](OC(N)=O)C1)c1ccc2ncnc(Nc3ccc(OCc4cccc(F)c4)c(Cl)c3)c2c1 [VIII-71]
17
CC#C/C(=N\OCCN(C)CCO)c1ccc2ncnc(Nc3ccc(OCc4ccccn4)c(Cl)c3)c2c1 [VIII-145]
21

# per-item lookup of IC50; items listed below
1. CNCCO/N=C(\C#CCOC)c1ccc2ncnc(Nc3ccc(S(=O)(=O)c4ccccc4)cc3)c2c1 [VIII-208]
2. CC#C/C(=N\OCCNCCNS(C)(=O)=O)c1ccc2ncnc(Nc3ccc4c(cnn4Cc4cccc(F)c4)c3)c2c1 [VIII-185]
3. CC#C/C(=N\OCCN1C[C@@H](C)O[C@@H](C)C1)c1ccc2ncnc(Nc3ccc(OCc4cccc(F)c4)c(Cl)c3)c2c1 [VIII-93]

[27, 12, 38]

Quick one: IC50 of CC#C/C(=N\OCCNC[C@@H](C)CO)c1ccc2ncnc(Nc3ccc(OCc4ccccn4)c(Cl)c3)c2c1 [VIII-139] ?
32

====

Tested on: BT-474
Procedure summary: In vitro cell proliferation inhibition, WST assay
Type: cell-based, human
Condition set: Homo sapiens, BT-474, 72 h, BT-474 cells, cultured for 3 days, read-out: BT-474 (nM) proliferation inhibitory activity (IC50 value)
Task for the reader: assign each of the following molecules its reported IC50.
One number for each entry, in nM.

Solved entries:
CC#C/C(=N\OCCNCCS(C)(=O)=O)c1ccc2ncnc(Nc3ccc(OCc4ccccn4)c(Cl)c3)c2c1
18
CC#C/C(=N\OCCN(CC)CCOC)c1ccc2ncnc(Nc3ccc4c(cnn4Cc4cccc(F)c4)c3)c2c1
24
CC#C/C(=N\O[C@@H]1CN[C@H](CO)C1)c1ccc2ncnc(Nc3ccc(OCc4ccccn4)c(Cl)c3)c2c1
28
CC/C(=N\OCCNC)c1ccc2ncnc(Nc3ccc(OCc4cccc(F)c4)c(Cl)c3)c2c1
37

Quick one: IC50 of "CS(=O)(=O)CCNCCON=C(c1ccccc1)c1ccc2ncnc(Nc3ccc(OCc4cccc(F)c4)c(Cl)c3)c2c1" ?
77

====

Subject of test: HER2 (Homo sapiens)
Construct: purchased Carna Biosciences, Inc; host or cells: insect cell expression system
Procedure summary: Enzyme inhibitory activity on HER2 (time resolution fluorescence, biotinylated poly-Glu-Tyr substrate)
Type: biochemical
Condition set: enzyme reaction at room temperature for 60 minutes
Quantity measured: log10 of IC50 (log10 of the value in nM)
Please keep in mind that the values are log10 of IC50 expressed in nM.

Solved entries:
CC#C/C(=N\OCCN(C)CCOC)c1ccc2ncnc(Nc3ccc(OCc4ccccn4)c(Cl)c3)c2c1 [VIII-146]
1.00
CC#C/C(=N\OCCNCCO)c1ccc2ncnc(Nc3ccc(OCc4ccccn4)c(Cl)c3)c2c1 [VIII-143]
0.56

# per-item lookup of log10 of IC50; items listed below
1. CC#C/C(=N\OCCNCCNC(C)=O)c1ccc2ncnc(Nc3ccc(OCc4ccccn4)c(Cl)c3)c2c1 [VIII-134]
2. CN(/N=C/c1ccc2ncnc(Nc3ccc(OCc4cccc(F)c4)c(Cl)c3)c2c1)c1ccccc1 [IX-8]
3. CC#C/C(=N\OC[C@@H]1C[C@H](O)CN1)c1ccc2ncnc(Nc3ccc4c(cnn4Cc4cccc(F)c4)c3)c2c1 [VIII-194]
4. CC#C/C(=N\OCC(=O)NCCOS(C)(=O)=O)c1ccc2ncnc(Nc3ccc(OCc4cccc(F)c4)c(Cl)c3)c2c1 [VIII-225]

[0.87, 2.74, 1.11, 1.85]

====

Subject of test: HER2 (Homo sapiens, UniProt P04626)
Construct: purchased Carna Biosciences, Inc; host or cells: insect cell expression system
Sequence (P04626 23-1255): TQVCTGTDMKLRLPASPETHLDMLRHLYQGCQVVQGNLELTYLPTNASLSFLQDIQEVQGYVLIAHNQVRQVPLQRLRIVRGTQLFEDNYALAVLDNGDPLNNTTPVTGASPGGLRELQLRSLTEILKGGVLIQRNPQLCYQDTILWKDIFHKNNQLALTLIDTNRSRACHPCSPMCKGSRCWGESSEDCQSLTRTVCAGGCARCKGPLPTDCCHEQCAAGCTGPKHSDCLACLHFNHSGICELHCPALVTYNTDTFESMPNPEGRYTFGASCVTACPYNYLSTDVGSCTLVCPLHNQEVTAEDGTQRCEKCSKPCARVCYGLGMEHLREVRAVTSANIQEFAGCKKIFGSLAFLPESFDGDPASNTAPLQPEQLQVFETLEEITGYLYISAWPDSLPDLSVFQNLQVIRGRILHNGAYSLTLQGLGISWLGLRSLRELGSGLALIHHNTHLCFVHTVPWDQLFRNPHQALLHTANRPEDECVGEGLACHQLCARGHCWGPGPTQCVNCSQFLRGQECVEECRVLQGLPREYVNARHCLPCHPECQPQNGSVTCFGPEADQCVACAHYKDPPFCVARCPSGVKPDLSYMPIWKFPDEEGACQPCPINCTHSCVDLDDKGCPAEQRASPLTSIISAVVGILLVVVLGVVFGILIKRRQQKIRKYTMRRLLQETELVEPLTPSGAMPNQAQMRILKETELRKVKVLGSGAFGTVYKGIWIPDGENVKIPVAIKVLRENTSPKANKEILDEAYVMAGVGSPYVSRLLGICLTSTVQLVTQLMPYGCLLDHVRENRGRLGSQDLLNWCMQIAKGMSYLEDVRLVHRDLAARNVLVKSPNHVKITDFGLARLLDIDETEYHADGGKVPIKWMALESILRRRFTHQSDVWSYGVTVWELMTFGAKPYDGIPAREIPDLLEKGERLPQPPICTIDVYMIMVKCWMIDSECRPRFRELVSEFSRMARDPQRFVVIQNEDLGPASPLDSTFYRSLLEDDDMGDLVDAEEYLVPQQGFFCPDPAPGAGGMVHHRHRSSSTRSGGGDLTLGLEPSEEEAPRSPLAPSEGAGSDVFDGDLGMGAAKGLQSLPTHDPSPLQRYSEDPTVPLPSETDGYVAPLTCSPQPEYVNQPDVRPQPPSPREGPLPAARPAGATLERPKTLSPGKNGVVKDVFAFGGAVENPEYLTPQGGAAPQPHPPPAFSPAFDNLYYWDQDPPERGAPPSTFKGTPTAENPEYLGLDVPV
Procedure summary: Enzyme inhibitory activity on HER2 (time resolution fluorescence, biotinylated poly-Glu-Tyr substrate)
Type: biochemical
Condition set: enzyme reaction at room temperature for 60 minutes
Protocol: Enzyme Inhibitory Activity of Test Compound on EGFR and HER2 EGFR and HER2 purified from an insect cell expression system, and a biotinylated substrate (synthetic peptide of glutamic acid:tyrosine=4:1) were added to a 384-well plate with ATP added thereto, and an enzyme reaction was performed at room temperature. […]
Quantity measured: IC50
Write the numeric value and append its unit.

CC#C/C(=N\OCCN1CCOCC1)c1ccc2ncnc(Nc3ccc4c(cnn4Cc4cccc(F)c4)c3)c2c1 [VIII-195]
43 nM
CNCCO/N=C(\C#CCOC)c1ccc2ncnc(Nc3ccc(OCc4ccccn4)c(Cl)c3)c2c1 [VIII-180]
6 nM
CC#C/C(=N\OCCNC[C@@H]1COC(=O)N1)c1ccc2ncnc(Nc3ccc4c(cnn4Cc4cccc(F)c4)c3)c2c1 [VIII-191]
42 nM

Quick one: IC50 of CC#C/C(=N\OCCN1CCOCC1)c1ccc2ncnc(Nc3ccc(OCc4ccccn4)c(Cl)c3)c2c1 [VIII-163] ?
27 nM
